test system: human melanoma SKMEL28 cells; assay: MTS cell viability assay, SKMEL28; format: cell-based; conditions: Homo sapiens, SK-MEL-28, Table 5
Experimental endpoint: pIC50
Give bare numbers, as −log10 of the molar value.

Recorded results for 2 molecules are shown here.
- CC1=C(CO)C(=O)O[C@@H]([C@@H](C)[C@H]2CC[C@H]3[C@@H]4C[C@H]5O[C@]56[C@@H](OC(=O)CN(C)C)C=CC(=O)[C@]6(C)[C@H]4CC[C@]23C)C1 [Compound X036]: 5.63
- CC(=O)OCC1=C(C)C[C@H]([C@@H](C)[C@H]2CC[C@H]3[C@@H]4C[C@H]5O[C@]56[C@@H](O)C=CC(=O)[C@]6(COC(C)=O)[C@H]4CC[C@]23C)OC1=O [HFM-JA-336D]: 6.57

We now examine a further molecule.
Query :: Query (molecule): CC1=C(CO)C(=O)O[C@@H]([C@@H](C)[C@H]2CC[C@H]3[C@@H]4C[C@H]5O[C@]56[C@@H](OC(=O)c5ccc(Cl)cc5)C=CC(=O)[C@]6(CO)[C@H]4CC[C@]23C)C1 [HFM-JA-398H] ; field requested: pIC50
Result :: 5.46
